B1: Azoarcus group I ribozyme (parent)
chain: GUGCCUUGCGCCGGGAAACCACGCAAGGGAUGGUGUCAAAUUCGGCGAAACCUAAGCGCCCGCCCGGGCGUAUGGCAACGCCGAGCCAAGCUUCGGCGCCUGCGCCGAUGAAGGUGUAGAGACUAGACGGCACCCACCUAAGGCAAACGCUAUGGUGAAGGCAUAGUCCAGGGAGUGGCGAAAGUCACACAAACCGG

Variants of: B1
Test: reverse-splicing fitness (ratio to wild type); higher = more active; in vitro selection; Mg2+ level not given
As shown below, each of these variants has a reported reverse-splicing fitness value.

Mutation Label | reverse-splicing fitness
C82A A111U A120C A145U C169U U176A | 0.0151
C82G A111U A145G C150U C169A U176C | 0.0164
C82U A120U A145G C150U U176A | 0.0299
C82U A120G A145C C169U U176C | 0.0127
C82U A111C A120G A145C C150A C169G U176G | 0.00512
C82U A120C A145U C150G C169A U176A | 0.00958
A111C A120C A145G C150A C169G U176G | 0.00696
C82A A111U A120C A145C C150A C169U U176A | 0.0157
A111G A120G A145G C150U C169G U176A | 0.0549
C82A A120C C150A C169A | 0.0115
C82U A111U A120G C150G C169U | 0.00755
A120C A145G C150G C169A U176A | 0.0131
C82G A111C A120C A145U C150U C169G U176G | 0.0072
C82U A111C A145G C169A U176A | 0.0231
C82U A111U A120G C169G U176C | 0.0225
C82G A111U A120U A145G C150G | 0.00902
C82U A111U A120G A145G C150G U176A | 0.0062
C82A A111U A120G A145G C150A | 0.0095
C82A A111U A145U C169A U176C | 0.0114
C82G A120U A145U C169U | 0.00672
C82U A111C A120U A145U C169G U176C | 0.00286
C82A A120C A145U C150A U176C | 0.0233
A111C C150G C169A U176C | 0.0107
C82U A111U A120C C150G C169U | 0.00868
C82A A111G A120U A145C C150G C169A U176G | 0.00179
C82G A111U A120U A145U C169U U176A | 0.00233
C82A A111U A145G C169U U176A | 0.0154
C82U A111C A120U A145C C150U C169G | 0.00293
C82G A111G A120U A145G C150U C169G | 0.00707
C82A A111U A120G A145C C150U C169U | 0.00725
C82U A111C A120C A145U C150G C169A U176G | 0.00632
C82U C150U U176C | 0.294
C82G A111C A120G A145G C150G C169G U176G | 0.00591
A111G A120G U176G | 0.0093
C82G A111G A120C A145C C150A U176C | 0.0111
C82G A145C C150A C169A U176G | 0.00515
C82A A111G A120G A145U C150U C169A U176A | 0.0141
C82G C150U C169U U176G | 0.00459
C82U A111C A120C A145U C169U U176A | 0.0127
C82A A111C A120C A145G C150U C169U U176C | 0.0128
C82A A111G A120U A145C C169U U176G | 0.00153
A111U A145C C150G U176C | 0.218
C82U A111U A145G C150G C169G U176G | 0.00579
C82U A111G C169U | 0.0128
A111U A120C A145G C150A C169A U176C | 0.0204
C82G A111U A120C C150U U176G | 0.00892
